Could you please report measured pERK-HEK293-Beta-klotho without HSA [EC50 (nM)] Median Value for the items listed next?
# Assay target: T1, human beta-Klotho (human, UniProt Q86Z14 1-1044)
# T1 sequence (looked up): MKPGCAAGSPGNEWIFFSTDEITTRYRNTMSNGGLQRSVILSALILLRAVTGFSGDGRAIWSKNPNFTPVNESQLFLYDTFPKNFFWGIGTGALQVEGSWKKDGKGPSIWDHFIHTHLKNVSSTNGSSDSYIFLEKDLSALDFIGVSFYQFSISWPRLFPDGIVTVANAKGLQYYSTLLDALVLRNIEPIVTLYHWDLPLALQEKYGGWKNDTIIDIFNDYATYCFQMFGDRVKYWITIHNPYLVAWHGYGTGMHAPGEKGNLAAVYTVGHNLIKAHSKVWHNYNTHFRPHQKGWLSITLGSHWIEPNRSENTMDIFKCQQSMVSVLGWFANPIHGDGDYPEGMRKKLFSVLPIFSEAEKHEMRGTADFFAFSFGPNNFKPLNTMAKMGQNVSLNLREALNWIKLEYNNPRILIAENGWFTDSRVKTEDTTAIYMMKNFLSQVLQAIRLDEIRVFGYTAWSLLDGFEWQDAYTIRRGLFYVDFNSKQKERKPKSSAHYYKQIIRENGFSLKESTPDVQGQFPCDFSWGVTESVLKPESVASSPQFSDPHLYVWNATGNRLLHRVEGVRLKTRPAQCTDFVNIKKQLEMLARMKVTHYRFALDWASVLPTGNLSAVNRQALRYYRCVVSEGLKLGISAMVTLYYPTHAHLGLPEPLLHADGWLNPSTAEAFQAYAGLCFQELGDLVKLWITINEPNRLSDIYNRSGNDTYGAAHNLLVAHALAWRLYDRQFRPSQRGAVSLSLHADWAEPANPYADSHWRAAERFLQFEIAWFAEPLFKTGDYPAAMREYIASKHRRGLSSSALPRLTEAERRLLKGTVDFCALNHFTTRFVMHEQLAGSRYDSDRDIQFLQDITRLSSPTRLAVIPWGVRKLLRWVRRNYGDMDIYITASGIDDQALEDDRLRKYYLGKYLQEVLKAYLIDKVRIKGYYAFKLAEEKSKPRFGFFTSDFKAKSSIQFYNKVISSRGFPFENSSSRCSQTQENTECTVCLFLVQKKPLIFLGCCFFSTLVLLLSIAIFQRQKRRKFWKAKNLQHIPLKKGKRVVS
# Assay overview: cell-based or functional assay
Field format: number, assumed nM, no unit text.

Query :: Quote pERK-HEK293-Beta-klotho without HSA [EC50 (nM)] Median Value reported for S71C Met-FGF21 derivative of Examples 6 and 12 (ligand, S-71-({2-[2-(2-{2-[2-(2-{2-[(S)-4-carboxy-4-(19-carboxy-nonadecanoylamino)-butyrylamino]-ethoxy}-ethoxy)-acetylamino]-ethoxy}-ethoxy)-acetylamino]-ethylcarbamoyl}-methyl) on the thiol of Cys71) MHPIPDSSPLLQFGGQVRQRYLYTDDAQQTEAHLEIREDGTVGGAADQSPESLLQLKALKPGVIQILGVKTCRFLCQRPDGALYGSLHFDPEACSFRELLLEDGYNVYQSEAHGLPLHLPGNKSPHRDPAPRGPARFLPLPGLPPALPEPPGILAPQPPDVGSSDPLSMVGPSQGRSPSYAS please.
Result :: 1.5

Query :: Provide measured pERK-HEK293-Beta-klotho without HSA [EC50 (nM)] Median Value value, entry: (K56R, 59R, 69R, 122R, 166F, 167G, 168L, 169aT, 171L, 172E, 173A, 174V, 179F, 180E, 181R) Ser-FGF21 derivative of Example 50 (ligand, N-alpha-1-[2-(2-{2-[2-(2-{2-[(S)-4carboxy-4-(17-carboxy-heptadecanoylamino)-butyrylamino]-ethoxy}-ethoxy)-acetylamino]-ethoxy}-ethoxy)-acetyl] on the N-terminal alpha amino group) SHPIPDSSPLLQFGGQVRQRYLYTDDAQQTEAHLEIREDGTVGGAADQSPESLLQLRALRPGVIQILGVRTSRFLCQRPDGALYGSLHFDPEACSFRELLLEDGYNVYQSEAHGLPLHLPGNRSPHRDPAPRGPARFLPLPGLPPALPEPPGILAPQPPDVGSSDPFGLVTGLEAVRSPSFER
Result :: 2

Query :: Answer with the recorded pERK-HEK293-Beta-klotho without HSA [EC50 (nM)] Median Value for the binder listed here: (169aT, 171L, 172E, 173A, 174V, 179F, 180E, 181K) Met-FGF21 (ligand) MHPIPDSSPLLQFGGQVRQRYLYTDDAQQTEAHLEIREDGTVGGAADQSPESLLQLKALKPGVIQILGVKTSRFLCQRPDGALYGSLHFDPEACSFRELLLEDGYNVYQSEAHGLPLHLPGNKSPHRDPAPRGPARFLPLPGLPPALPEPPGILAPQPPDVGSSDPLSMVTGLEAVRSPSFEK
Result :: 3.9
